test: Biodistribution in mouse jejunum at 3 mg/kg, po at 25 hrs; assay type: ADME, organism-based; design: dose 3 mg/kg, route oral; conditions: read-out: Drug uptake
quantity: concentration at 25 h

* O=C(O)[C@H]1CC[C@@H](Oc2ccc(-c3ccc(-c4nc5ccccc5[nH]4)cn3)cn2)CC1 | 3.06 µM

----------
assay: Cmax in Sprague-Dawley rat at 10 mg/kg, po; type: ADME, organism-based; set-up: dose 10 mg/kg, route oral; settings: in vivo
quantity: Cmax

• O=C(O)[C@H]1CC[C@@H](Oc2ccc(-c3ccc(-c4nc5ccc(F)cc5[nH]4)cn3)cn2)CC1 = 60 nM

----------
assay: Biodistribution in mouse duodenum at 3 mg/kg, po at 5 hrs; type: ADME, organism-based; set-up: dose 3 mg/kg, route oral; details: read-out: Drug uptake
quantity: concentration at 5 h (µM)

- O=C(O)[C@H]1CC[C@@H](Oc2ccc(-c3ccc(-c4nc5ccccc5[nH]4)cn3)cn2)CC1: 8.76

----------
assay: AUC in beagle dog at 2 mg/kg, po; type: ADME, organism-based, Canis lupus familiaris; parameters: dose 2 mg/kg, route oral; conditions: plasma
quantity: AUC (µM·h)

* O=C(O)[C@H]1CC[C@@H](Oc2ccc(-c3ccc(-c4nc5ccc(F)cc5[nH]4)cn3)cn2)CC1 | 0.05

----------
assay: Biodistribution in mouse duodenum at 3 mg/kg, po at 2 hrs; format: ADME, organism-based; set-up: dose 3 mg/kg, route oral; conditions: read-out: Drug uptake
quantity: concentration at 2 h

• O=C(O)[C@H]1CC[C@@H](Oc2ccc(-c3ccc(-c4nc5ccccc5[nH]4)cn3)cn2)CC1 = 8.32 µM

----------
assay: Biodistribution in mouse ileum at 3 mg/kg, po at 25 hrs; format: ADME, organism-based; design: dose 3 mg/kg, route oral; settings: read-out: Drug uptake
quantity: concentration at 25 h (nM)

• O=C(O)[C@H]1CC[C@@H](Oc2ccc(-c3ccc(-c4nc5ccccc5[nH]4)cn3)cn2)CC1 = 620

----------
assay: AUC in rhesus monkey at 2 mg/kg, po; format: ADME, organism-based, Macaca mulatta; design: dose 2 mg/kg, route oral; details: plasma
quantity: AUC

- O=C(O)[C@H]1CC[C@@H](Oc2ccc(-c3ccc(-c4nc5ccc(F)cc5[nH]4)cn3)cn2)CC1: 0.2 µM·h

----------
Listing of recorded clearance by entry.
assay: Clearance in Sprague-Dawley rat at 1 mg/kg, iv; format: ADME, organism-based; set-up: dose 1 mg/kg, route intravenous; settings: in vivo
quantity: clearance (mL/min/kg)

- O=C(O)[C@H]1CC[C@@H](Oc2ccc(-c3ccc(-c4nc5ccc(Cl)cc5[nH]4)cn3)cn2)CC1: 3
- O=C(O)[C@H]1CC[C@@H](Oc2ccc(-c3ccc(-c4nc5ccc(F)cc5[nH]4)cn3)cn2)CC1: 31.8
- O=C(O)[C@H]1CC[C@H](Oc2ccc(-c3ccc(-c4nc5ccc(F)cc5[nH]4)cn3)cn2)CC1: 4.2

----------
test: AUC in Sprague-Dawley rat at 10 mg/kg, po; format: ADME, organism-based; design: dose 10 mg/kg, route oral; conditions: plasma
quantity: AUC

- O=C(O)[C@H]1CC[C@@H](Oc2ccc(-c3ccc(-c4nc5ccc(F)cc5[nH]4)cn3)cn2)CC1: 0.25 µM·h

----------
assay: Tmax in beagle dog at 2 mg/kg, po; format: ADME, organism-based, Canis lupus familiaris; set-up: dose 2 mg/kg, route oral; settings: in vivo
quantity: Tmax (min)

• O=C(O)[C@H]1CC[C@@H](Oc2ccc(-c3ccc(-c4nc5ccc(F)cc5[nH]4)cn3)cn2)CC1 = 15

----------
experiment: Biodistribution in mouse blood at 3 mg/kg, po at 5 hrs; format: ADME, organism-based; set-up: dose 3 mg/kg, route oral; settings: whole blood, read-out: Drug uptake
quantity: concentration at 5 h (nM)

• O=C(O)[C@H]1CC[C@@H](Oc2ccc(-c3ccc(-c4nc5ccccc5[nH]4)cn3)cn2)CC1 = 51

----------
test: Biodistribution in mouse blood at 3 mg/kg, po at 2 hrs; format: ADME, organism-based; design: dose 3 mg/kg, route oral; conditions: whole blood, read-out: Drug uptake
quantity: concentration at 2 h (nM)

- O=C(O)[C@H]1CC[C@@H](Oc2ccc(-c3ccc(-c4nc5ccccc5[nH]4)cn3)cn2)CC1: 114

----------
test: Volume of distribution at steady state in rhesus monkey at 1 mg/kg, iv; type: ADME, organism-based, Macaca mulatta; set-up: dose 1 mg/kg, route intravenous; details: in vivo, read-out: Vdss
quantity: Vd (L/kg)

* O=C(O)[C@H]1CC[C@@H](Oc2ccc(-c3ccc(-c4nc5ccc(F)cc5[nH]4)cn3)cn2)CC1 | 0.37

----------
assay: Biodistribution in mouse duodenum at 3 mg/kg, po at 25 hrs; type: ADME, organism-based; design: dose 3 mg/kg, route oral; details: read-out: Drug uptake
quantity: concentration at 25 h (nM)

- O=C(O)[C@H]1CC[C@@H](Oc2ccc(-c3ccc(-c4nc5ccccc5[nH]4)cn3)cn2)CC1: 1760

----------
assay: Half life in beagle dog at 0.55 mg/kg, iv; type: ADME, organism-based, Canis lupus familiaris; design: dose 0.55 mg/kg, route intravenous; conditions: in vivo
quantity: half-life (min)

• O=C(O)[C@H]1CC[C@@H](Oc2ccc(-c3ccc(-c4nc5ccc(F)cc5[nH]4)cn3)cn2)CC1 = 49.2

----------
Molecular target: UniProt:Q9Z2A7
Sequence (Q9Z2A7 whole entry): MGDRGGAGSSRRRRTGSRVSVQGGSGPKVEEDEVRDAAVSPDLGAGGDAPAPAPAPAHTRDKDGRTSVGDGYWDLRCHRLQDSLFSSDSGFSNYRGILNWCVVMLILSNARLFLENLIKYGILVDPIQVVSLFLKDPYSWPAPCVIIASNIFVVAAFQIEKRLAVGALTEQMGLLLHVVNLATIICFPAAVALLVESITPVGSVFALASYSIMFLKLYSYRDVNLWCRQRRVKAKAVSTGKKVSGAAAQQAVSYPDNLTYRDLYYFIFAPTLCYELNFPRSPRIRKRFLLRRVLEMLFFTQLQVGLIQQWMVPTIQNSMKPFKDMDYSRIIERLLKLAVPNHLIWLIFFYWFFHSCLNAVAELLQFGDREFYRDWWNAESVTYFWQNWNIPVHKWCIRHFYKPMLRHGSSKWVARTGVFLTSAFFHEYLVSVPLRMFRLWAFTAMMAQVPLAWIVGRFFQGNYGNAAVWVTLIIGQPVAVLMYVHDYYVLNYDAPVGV
quantity: IC50 (nM)

• CS(=O)(=O)c1ccc2nc(-c3ccc(-c4ccc(O[C@H]5CC[C@H](C(=O)O)CC5)nc4)nc3)[nH]c2c1 = 727
• O=C(O)[C@H]1CC[C@@H](Oc2ccc(-c3ccc(-c4nc5cc(C(F)(F)F)ccc5[nH]4)cn3)cn2)CC1 = 2.2
• O=C(O)[C@H]1CC[C@H](Oc2ccc(-c3ccc(-c4nc5cc(C(F)(F)F)ccc5[nH]4)cn3)cn2)CC1 = 4.4
• O=C(O)[C@H]1CC[C@H](Oc2ccc(-c3ccc(-c4nc5ccc(F)cc5[nH]4)cn3)cn2)CC1 = 8.1
• O=C(O)C[C@H]1CC[C@H](c2ccc(-c3ccc(-c4nc5ccc(C(F)(F)F)cc5[nH]4)cn3)cc2)CC1 = 2.8
• O=C(O)[C@H]1CC[C@@H](Oc2ccc(-c3ccc(-c4nc5cc(F)c(F)cc5[nH]4)cn3)cn2)CC1 = 3.4
• O=C(O)[C@H]1CC[C@H](Oc2ccc(-c3ccc(-c4nc5cc(Cl)ccc5[nH]4)cn3)cn2)CC1 = 4.2
• CS(=O)(=O)c1ccc2nc(-c3ccc(-c4ccc(O[C@H]5CC[C@@H](C(=O)O)CC5)nc4)nc3)[nH]c2c1 = 358
• N#Cc1ccc2nc(-c3ccc(-c4ccc(O[C@H]5CC[C@@H](C(=O)O)CC5)nc4)nc3)[nH]c2c1 = 36
• O=C(O)[C@H]1CC[C@H](Oc2ccc(-c3ccc(-c4nc5cc(F)c(F)cc5[nH]4)cn3)cn2)CC1 = 4.3
